B1: RHOBTB3 (parent)
chain: KVVEAHKIVLCAVSHVFMLLFNVK

Variants of: B1
Test Details: protein stability index of a GFP-peptide fusion (GPS, HEK-293T) (PSI 1-6); higher = more stable;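 also: lentivirally expressed fusions sorted by FACS into six bins by GFP to DsRed ratio, PSI derived from sequencing read proportions per bin multiplied by bin number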
Stated Conditions: c terminus: a fixed tail appended
Measured protein stability index, listed per entry.
Readout Label: protein stability index

>>> test_result("L19N")
2.18
>>> test_result("F21R")
1.81
>>> test_result("K1T")
2.71
>>> test_result("V23G")
3.05
>>> test_result("H15V")
3.1
>>> test_result("E4P")
2.37
>>> test_result("L20R")
1.77
>>> test_result("K7Y")
3.35
>>> test_result("V23H")
3.18
>>> test_result("E4T")
2.53
>>> test_result("A12T")
1.6
>>> test_result("N22L")
2.42
>>> test_result("M18R")
1.14
>>> test_result("I8N")
1.89
>>> test_result("N22P")
2.1
>>> test_result("A12Q")
2.37
>>> test_result("L10P")
1.82
>>> test_result("F17V")
1.88
>>> test_result("V3Y")
2.53
>>> test_result("V16M")
2.3
>>> test_result("H15I")
3.89
>>> test_result("S14M")
3.96
